- protocol: gradient 5% acetonitrile 3 min, to 50% in 2 min, to 85% in 15 min, held 3 min, 100 µL/min
- test.conditions: column: Zorbax Extend-C18 2.1 x 50 mm; eluents: water / acetonitrile, 0.1% formic acid
// label = t if RP-LC retention time is not less than 800 s, otherwise f

Examples with answers:
Cc1ccc(-n2nc(N3CCN(C(=O)Nc4cc(F)ccc4F)CC3)ccc2=O)cc1 = t
Cc1ccc(CNC(=O)C2(C)CCN(C(=O)Nc3cc(Cl)ccc3C)CC2)cc1 = t
CCC(C)NC(=O)C1CCCN(c2ncccc2-c2noc(C3CCC3)n2)C1 (centres undefined) = t
CCCCN(C)C(=O)CCC1CCCN(c2cc(NCC)ncn2)C1 (centres undefined) = f
Cc1cc2c(N3CCCC(C(=O)NCc4ccc(F)cc4F)C3)nccc2s1 (centres undefined) = f
CC1CCCCN1CCNC(=O)C1CCN(c2nc3cccnc3s2)CC1 (centres undefined) = f

Field: next molecule
Incoming: Does RP-LC retention time meet or surpass 800 s for Cc1ccc(Cl)cc1N1CCN(c2cc(C(=O)O)c3cc(NC(=O)CC(C)C)ccc3n2)CC1 ?
Outgoing: t

###

- protocol: gradient 5% acetonitrile 3 min, to 50% in 2 min, to 85% in 15 min, held 3 min, 100 µL/min
- test.conditions: column: Zorbax Extend-C18 2.1 x 50 mm; eluents: water / acetonitrile, 0.1% formic acid
property: RP-LC retention time (s)
Write it as a number; the unit s goes unstated.

CCc1nc2cc(N3CCCC(C(=O)NC(C)C)C3)cnc2nc1CC (stereo not given) = 747

Incoming: Which RP-LC retention time value is on record for CCOC(=O)c1cc([N+](=O)[O-])sc1NC(=O)c1c(-c2ccccc2Cl)noc1C ?
Outgoing: 1220

Incoming: Looking for the measured RP-LC retention time of Cc1cc(N2CCOCC2)nc(N2CCN(C(=O)C3CCCCC3)CC2)n1 , can you help?
Outgoing: 625

Incoming: Please report the recorded RP-LC retention time for Clc1cccc(-c2noc(Cn3ccnc3)n2)c1 .
Outgoing: 636

Incoming: Return reported RP-LC retention time; argument: Cc1cccc(Sc2nccnc2N2CCC(C(=O)NCC3CCCO3)CC2)c1 (stereo not given)
Outgoing: 888

Incoming: Data request, read-out RP-LC retention time, for O=C(Nc1ccc(Cl)cc1)C1CC(=O)N(CCc2c[nH]c3ccc(F)cc23)C1 (stereo not given)
Outgoing: 857

Incoming: Report RP-LC retention time for CCOC(=O)CNC(=O)C1(C)Cn2c(ccc2-c2ccco2)C(=O)N1Cc1ccccc1Cl (stereo not given) please.
Outgoing: 876

###

- protocol: gradient 5% acetonitrile 3 min, to 50% in 2 min, to 85% in 15 min, held 3 min, 100 µL/min
- test.conditions: column: Zorbax Extend-C18 2.1 x 50 mm; eluents: water / acetonitrile, 0.1% formic acid
property: RP-LC retention time

# example entries with known answers
COc1ccc(CN2C=C(C(=O)OCc3noc(-c4ccco4)n3)C(C)=NS2(=O)=O)cc1 = 1000 s
COc1cc(NC(=O)Cn2nc3nc(N4CCCC(C)C4)ccn3c2=O)cc(OC)c1 (stereo not given) = 770 s
CC(C)NC(=O)c1ccc(OCC2CCCN(C(=O)c3cccs3)C2)cc1 (stereo not given) = 818 s
COc1ccc(-c2nc3ccc(Br)cn3c2Nc2ccc(C)cc2)cc1O = 742 s
CC(C(=O)NC1CCSC1=O)n1nc(-n2cccn2)ccc1=O (stereo not given) = 616 s
Cc1nc(C)c(-c2nnc(NC(=O)c3ccno3)o2)s1 = 603 s

Incoming: RP-LC retention time lookup needed for COc1cccc2nc(NC(=O)c3ccc(Br)s3)sc12 , thanks.
Outgoing: 990 s

Incoming: What RP-LC retention time value was documented for this compound, CC1CCN(C(=O)CN2C(=O)C3CCCCN3c3ccc(C(=O)N(C)C)cc32)CC1 (stereo not given) ?
Outgoing: 752 s

Incoming: Give its RP-LC retention time value. Item: CCOC(=O)c1ccccc1NC(=O)CSc1ccc(-c2ccco2)nn1
Outgoing: 524 s

Incoming: // RP-LC retention time lookup, key: CCCc1nc2c(c(=O)n1CC(=O)NCc1cccs1)CCN(Cc1ccccc1)C2
Outgoing: 641 s
